# target entity: T1, O14-bP
# T1 chain: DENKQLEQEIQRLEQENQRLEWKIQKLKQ
# measurement description: two-hybrid library CCNG1;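 also: natural log of median RNA to DNA barcode read ratio; higher means stronger binding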
metric name: interaction score

INSERT INTO results (binder, metric_name, recorded_number) VALUES
  ('DENKQLEQEIQRLEQENQRLEWKIQKLKQ [O14-bP]', 'interaction score', -1.46);

a. DKNKQLKQENQRLEQEIQRLEWEIQKLEQ [O1-bP]
b. DKNKQLKQKIQRLKQKNQRLKWEIQKLEQ [O13-bP]
c. DKIKQLKQEIQRLEQENQRLEWENQKLEQ [O11-bP]
d. DEIKQLEQKIQRLKQKNQRLKWKNQKLKQ [O12-bP]
e. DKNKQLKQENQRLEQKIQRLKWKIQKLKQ [O10-bP]
Please order the records by their reported interaction score, lowest number first. Give the labels in the order specified.
a, e, d, c, b
